Just for reference, ChEMBL document CHEMBL1142271 is where these values come from.

- Assay protocol: Oral bioavailability in rat
- Type: ADME, organism-based
- Assay setup: in vivo
Everything with bioavailability lower than 20% is condition not met; everything else, including exactly 20%, is condition met.

Record excerpt, results attached:
1. Cc1ccc2c(-c3nnc(SCCCN4CCc5cc6nc(C)oc6cc5CC4)n3C)cccc2n1
condition met
2. CCCc1nc2cc3c(cc2o1)CCN(CCCSc1nnc(-c2cccc4nc(C)ccc24)n1C)CC3
condition not met
3. Cc1ccc2c(-c3nnc(SCCCN4CCc5cc6c(cc5CC4)C(=O)N(C(C)C)C6)n3C)cccc2n1
condition not met
4. Cc1ccc2c(-c3nnc(SCCCN4CCc5cc6nc(C(F)(F)F)oc6cc5CC4)n3C)cccc2n1
condition met
5. Cc1ccc2c(-c3nnc(SCCCN4CCc5cc6nc(N7CCCCC7)oc6cc5CC4)n3C)cccc2n1
condition not met
6. Cc1ccc2c(-c3nnc(SCCCN4CCc5cc6nc(CC7CC7)oc6cc5CC4)n3C)cccc2n1
condition met
7. Cc1ccc2c(-c3nnc(SCCCN4CCc5cc6nc(N(C)C)oc6cc5CC4)n3C)cccc2n1
condition met
8. Cc1ncoc1-c1nnc(SCCCN2CCc3cc4nc(CC5CC5)oc4cc3CC2)n1C
condition met

Now look at this entry.
Hi team, for `Cc1ccc2c(-c3nnc(SCCCN4CCc5cc6nc(C)sc6cc5CC4)n3C)cccc2n1` , is the recorded bioavailability at or above 20%?
condition met
